Target: PDGFRB(JMminus) (PDGFR-β) (Homo sapiens, UniProt P09619)
Construct: PDGFRB(JMminus)
Sequence (P09619 600-962 limits assumed): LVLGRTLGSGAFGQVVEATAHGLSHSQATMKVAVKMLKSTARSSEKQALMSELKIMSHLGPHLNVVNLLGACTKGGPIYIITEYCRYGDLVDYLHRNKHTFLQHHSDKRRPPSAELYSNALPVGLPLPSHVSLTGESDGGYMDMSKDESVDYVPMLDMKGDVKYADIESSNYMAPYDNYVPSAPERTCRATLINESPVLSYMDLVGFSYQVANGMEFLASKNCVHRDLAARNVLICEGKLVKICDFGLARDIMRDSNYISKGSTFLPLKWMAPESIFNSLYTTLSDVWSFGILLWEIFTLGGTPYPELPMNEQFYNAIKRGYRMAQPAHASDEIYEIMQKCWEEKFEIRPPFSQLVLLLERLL
Experiment: Phage-display competitive binding assay, PDGFRB(JMminus)
Conditions: T7 phage displaying human PDGFR-β, JMminus construct; read-out: Binding Assay: PDGFRB(JMminus)
Description: Briefly, T7 phage displaying human PDGFR-β were incubated with an affinity matrix coated with known PDGFR-β inhibitor in the presence of various concentrations of the soluble competitor molecules.
READOUT_NAME: Kd

Query :: Which measured Kd belongs to CC(C)(C)c1cc(NC(=O)Nc2ccc(NC(=O)c3ccccn3)cc2)no1 , tested on PDGFRB(JMminus) (PDGFR-β) (Homo sapiens, UniProt P09619)?
Result :: < 100 nM

====

molecular target: PDGFRB(DKIN) (PDGFR-β) (Homo sapiens); construct: PDGFRB(DKIN); test: Phage-display competitive binding assay, PDGFRB(DKIN); details: T7 phage displaying human PDGFR-β, DKIN construct; read-out: Binding Assay: PDGFRB(DKIN)
Field: Kd. Provide a value for each of the compounds that follow.

Query :: Requested read-out: Kd. Entry: CC(C)(C)c1cc(NC(=O)Nc2ccc(NC(=O)c3ccc4ccccc4c3)cc2)no1 [Compound N28]
Result :: < 100 nM

Query :: I am curious: what Kd value has been reported for CC(C)(C)c1cc(NC(=O)Nc2ccc(C(=O)NCc3ccccc3)cc2)no1 [Compound N89] ?
Result :: 100 to 1000 nM

Query :: Find the recorded Kd belonging to C=C/C(=C\C=C\Cl)NC(=O)Nc1ccc(C(=O)OCCOC)cc1 [Compound Z54] and report it.
Result :: 1000 to 10000 nM

Query :: # query: Kd of entry Cc1cc(NC(=O)[C@](C)(O)CSc2ccc(F)cc2)ccc1NC(=O)Nc1cc(C(C)(C)C)on1 [Compound N170]
Result :: 100 to 1000 nM

Query :: // Kd lookup, key: CC(C)(C)c1cc(C(=O)Nc2ccc(NC(=O)Nc3cc(C(C)(C)C)on3)cc2)n(-c2ccccc2)n1 [Compound N78]
Result :: 1000 to 10000 nM

Query :: Query (compound): CC(C)(C)c1cc(NC(=O)Nc2ccc(OCc3ccccc3C(F)(F)F)cc2)no1 [Compound G4] ; field requested: Kd
Result :: 100 to 1000 nM

Query :: Any idea what its Kd is? The compound is CC(C)(C)c1cc(NC(=O)Nc2ccc(C(=O)NCc3ccc4c(c3)OCO4)cc2)no1 [Compound N97]
Result :: 1000 to 10000 nM

Query :: Returns the measured Kd for the input compound. Input: CC(C)(C)c1cc(NC(=O)Nc2ccc(NC(=O)c3nnsc3Oc3ccc(Cl)cc3)cc2)no1 [Compound N71]
Result :: 1000 to 10000 nM

Query :: Reported Kd for CC(C)(C)c1cc(NC(=O)Nc2ccc(OC(F)(F)F)cc2)on1 [Compound A13] : what is it?
Result :: 100 to 1000 nM

Query :: // query Kd value for entry CN(Cc1cccc([N+](=O)[O-])c1)C(=O)Nc1cc(C(C)(C)C)on1 [Compound J3]
Result :: 100 to 1000 nM

Query :: Could you share which Kd value was measured for CC(=O)NS(=O)(=O)c1ccc(NC(=O)Nc2cc(C(C)(C)C)on2)cc1 [Compound V4] ?
Result :: > 10000 nM

Query :: So what does the record say about Kd for COc1cc(OC)nc(N(C)c2cccc(C(=O)Nc3ccc(NC(=O)Nc4ccon4)cc3)c2)n1 [Compound N53] ?
Result :: 100 to 1000 nM

Query :: Fill in: Kd of CC(C)(C)c1cc(NC(=O)Nc2ccc(NC(=O)c3ccncc3)cc2)no1 [Compound N167] is ___
Result :: < 100 nM

Query :: Can you look up the measured Kd of O=C(Nc1ccc(Br)cc1)Nc1cc(C(F)(F)F)cc(Cl)n1 [Compound Z72] for me?
Result :: > 10000 nM

Query :: Which Kd value belongs to Cc1nc(-c2ccccc2)sc1C(=O)Nc1ccc(NC(=O)Nc2cc(C(C)(C)C)on2)cc1 [Compound N181] ?
Result :: 100 to 1000 nM

Query :: // query Kd value for entry CC(C)(C)c1cc(NC(=O)Nc2ccc(Oc3ccccc3)cc2)no1 [Compound A24]
Result :: 100 to 1000 nM

Query :: What value of Kd has been recorded for this entry: CC(C)(C)c1cc(NC(=O)Nc2ccc(NC(=O)c3cc4cccc5c4n(c3=O)CC5)cc2)no1 [Compound N60]
Result :: < 100 nM
